Each recorded value in this set is attributed to PubChem BioAssay (NCI).

Tested on: CCRF-CEM leukemia
procedure_details: NCI-60 one-dose screen, 48 h (100 = growth as untreated, 0 = no growth, -100 = all killed)
protocol_conditions: 10 µM unless noted
This is part of a sample that, as a whole, favours compounds with a hit. Of some 83,000 tested, about 20% had one in any assay.
measure_name: growth (%)

* C[C@H](NC(=O)c1snnc1C1CC1)c1c(F)cccc1Cl | 110
* c1cn2cc(-c3ccc4ncn(C5CCCCC5)c4c3)nc(-c3ccc4c(c3)ncn4C3CCCCC3)c2n1 | 4.28
* Cc1cc([N+](=O)[O-])c(C)cc1N | 106
* O=C(CCl)Nc1cc(O)c2c(c1)C(=O)c1cccc(O)c1C2=O | -45
* COc1cc(OC)c(C(=O)/C=C/c2cccc(OC(C)=O)c2)cc1CC=C(C)C | 9.5
* C/C(=N\NC(=O)CSc1nc2ccccc2c(=O)n1CCc1ccc(S(N)(=O)=O)cc1)c1ccc(Br)cc1 | 76.7
* COc1ccc(-c2nc3ccccc3n3cccc23)cc1 | 89.9
* Cc1cc(C#Cc2ccc(C(C)(C)C)cc2)ccc1-n1c(/C=C/c2c(Cl)cccc2Cl)nc2ccccc2c1=O | 95.9
* CCCCCCCCCCCC1=NC(C)(C)CN1CC(C)O (configuration not stated) | 25.5
* O=C(CCl)Nc1ccc2c(c1)C(=O)c1ccccc1C2=O | -46.2
* C=C1C(=O)O[C@H]2[C@H]1CC/C(COC(=O)NCc1cn(C)c3ccccc13)=C\CC[C@@]1(C)O[C@@H]21 | -13.3
* CC(C)(C)[Si](C)(C)OC1[C@@H](CNC(N)=O)O[C@@H](n2cnc3c(NC(=O)Nc4ccccc4)ncnc32)[C@H]1O[Si](C)(C)C(C)(C)C (some centres not stated) | 47.9
